# ASSAY TARGET: Monocarboxylate transporter 4 (Homo sapiens)
# Sequence (O15427 whole entry): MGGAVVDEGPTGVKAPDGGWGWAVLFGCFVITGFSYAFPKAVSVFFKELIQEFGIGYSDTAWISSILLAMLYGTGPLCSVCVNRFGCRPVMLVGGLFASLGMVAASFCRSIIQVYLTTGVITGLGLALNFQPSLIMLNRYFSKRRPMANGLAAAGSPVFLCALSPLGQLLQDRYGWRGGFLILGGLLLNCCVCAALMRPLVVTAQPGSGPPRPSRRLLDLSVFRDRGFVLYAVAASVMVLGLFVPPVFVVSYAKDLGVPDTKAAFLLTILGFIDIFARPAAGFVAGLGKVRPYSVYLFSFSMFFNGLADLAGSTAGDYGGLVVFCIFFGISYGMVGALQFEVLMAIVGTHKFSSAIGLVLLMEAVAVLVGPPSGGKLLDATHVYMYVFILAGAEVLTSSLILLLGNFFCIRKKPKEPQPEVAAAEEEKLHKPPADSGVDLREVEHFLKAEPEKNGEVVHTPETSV
# PROTOCOL DETAILS: TP_TRANSPORTER: inhibition of L-Lactate uptake (L-Lactate:30mM) in Xenopus laevis oocytes
# Format: functional, cell-based, Oocyte
OBSERVABLE: IC50 (µM)
One number for each entry, in µM.

Known IC50 results, listed for orientation:
| COMPOUND | OBSERVABLE | REPORTED VALUE |
| --- | --- | --- |
| N#C/C(=C\c1ccc(O)cc1)C(=O)O [alpha-CYANO-4-HYDROXYCINNAMIC ACID] | IC50 | 991 |
| CC(C)Cn1c(=O)n(C)c(=O)c2[nH]cnc21 | IC50 | 970 |
| O=C(CCc1ccc(O)cc1)c1c(O)cc(O)cc1O | IC50 | 41 |

# evaluate next
Give the reported IC50 for `O=C(O)c1cc([N+](=O)[O-])ccc1NCCCc1ccccc1` (system: Monocarboxylate transporter 4 (Homo sapiens)).
240
